assay info: Half life in Sprague-Dawley rat at 3.5 mg/kg, iv
Assay type: ADME, organism-based
Design: dose 3.5 mg/kg, route intravenous
condition info: in vivo
assay endpoint: half-life (h)

>>> observed_value("COc1cccc([C@@H](C)NCc2ccc(OC)c(-c3ccc(C(F)(F)F)cc3)c2)c1")
4.9

* * *

assay info: AUC (0 to infinity) in Sprague-Dawley rat at 3.5 mg/kg, iv
Type: ADME, organism-based
Set-up: time infinity, dose 3.5 mg/kg, route intravenous
condition info: plasma
assay endpoint: AUC(0-inf) (ng·h/mL)

>>> observed_value("COc1cccc([C@@H](C)NCc2ccc(OC)c(-c3ccc(C(F)(F)F)cc3)c2)c1")
886
